# system_under_test: BSA (UniProt P02769)
# Sequence (P02769 25-607 limits assumed): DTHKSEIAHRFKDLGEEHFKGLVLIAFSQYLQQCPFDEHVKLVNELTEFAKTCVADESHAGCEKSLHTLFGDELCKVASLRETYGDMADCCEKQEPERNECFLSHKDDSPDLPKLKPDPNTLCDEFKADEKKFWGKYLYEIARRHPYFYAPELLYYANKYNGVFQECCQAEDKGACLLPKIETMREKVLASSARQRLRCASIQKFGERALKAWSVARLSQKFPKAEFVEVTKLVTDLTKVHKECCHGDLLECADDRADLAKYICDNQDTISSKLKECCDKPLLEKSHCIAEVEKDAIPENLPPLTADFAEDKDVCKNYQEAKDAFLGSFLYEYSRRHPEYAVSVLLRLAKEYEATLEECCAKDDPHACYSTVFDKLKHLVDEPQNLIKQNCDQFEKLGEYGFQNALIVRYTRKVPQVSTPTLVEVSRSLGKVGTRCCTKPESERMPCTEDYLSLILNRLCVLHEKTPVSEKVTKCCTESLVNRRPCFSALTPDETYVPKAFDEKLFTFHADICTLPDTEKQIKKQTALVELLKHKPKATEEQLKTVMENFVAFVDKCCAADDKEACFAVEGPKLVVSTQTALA
# assay_name: scFv ELISA
property_name: OD450 (OD450)
// units = OD450; emit number, no label

Before answering, review these 2 worked examples.
{"binder": "PcOxP_DB02_H04 (scFv, V domains shown, scFv in periplasmic extract) VH: EVQLLESGGGLVQPGGSLRLSCAASGFTFSDEYMEWVRQAPGKGLEWVAASRNKANDYTTEYADSVKGRFTISRDNSKNTLYLQMNSLRAEDTAVYYCARDYYGSSYWYFDVWGQGTLVTVSS VL: DIVMTQSPDSLAVSLGERATINCTASESLYSSKHKVVYLAWYQQKPGQPPKLLIYGASNRYIGVPDRFSGSGSGTDFTLTISSLQAEDVAVYYCAQFYFYPLTFGGGTKVEIK", "OD450 (OD450)": 0.06}
{"binder": "PcOxP_DB02_A12 (scFv, V domains shown, scFv in periplasmic extract) VH: EVQLLESGGGLVQPGGSLRLSCAASGFTFSDDYMEWVRQAPGKGLEWVAASRNKANDYTTEYADSVKGRFTISRDNSKNTLYLQMNSLRAEDTAVYYCARDYQGSSYWYFDVWGQGTLVTVSS VL: DIQMTQSPSSLSASVGDRVTITCTASESLYSSKHKVHYLAWYQQKPGKAPKLLIYGAFNRYTGVPSRFSGSGSGTDFTLTISSLQPEDFATYYCAQFYTYPLTFGGGTKVEIK", "OD450 (OD450)": 0.06}

The record that follows has no OD450 shown yet.
Need OD450 of PcOxP_DB03_E08 (scFv, V domains shown, scFv in periplasmic extract) VH: EVQLLESGGGLVQPGGSLRLSCAASGFTFSSFYMEWVRQAPGKGLEWVAASRNAANDYTTEYADSVKGRFTISRDNSKNTLYLQMNSLRAEDTAVYYCARDYYGSSYWYFDLWGQGTLVTVSS VL: DIQMTQSPSSLSASVGDRVTITCTASESLYSSKHKVHYLAWYQQKPGKAPKLLIYGASNRYIGVPSRFSGSGSGTDFTLTISSLQPEDFATYYCAQFYFYPLTFGGGTKVEIK , thanks.
0.09
